Reported melting point values for a set of compounds
Structures can show the parent of a compound that is named as a salt.

[
  {
    "Compound": "O=C(OCCO)c1ccc2c(c1)ncn2-c1cccc(N2CCN(CCO)CC2)c1 (as salt: HCl)",
    "melting point": "182 to 192 °C"
  },
  {
    "Compound": "COCCOC(=O)c1ccc2c(c1)ncn2-c1cccc(N2CCN(C)CC2)c1 (as salt: maleate)",
    "melting point": "136 to 137 °C"
  },
  {
    "Compound": "COCCOC(=O)c1ccc2c(c1)ncn2-c1cccc(N2CCN(CC(=O)OC(C)(C)C)CC2)c1 (as salt: HCl)",
    "melting point": "218 to 224 °C"
  },
  {
    "Compound": "COC(=O)c1ccc2c(c1)ncn2-c1cccc(N2CCN(Cc3ccccc3)CC2)c1 (as salt: HCl)",
    "melting point": "153 to 163 °C"
  }
]
